B1: tRNA (parent)
chain: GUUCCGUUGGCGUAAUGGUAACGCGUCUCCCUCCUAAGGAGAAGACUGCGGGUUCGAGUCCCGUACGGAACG

variants of: B1; assay: yeast fitness relative to wild type (ratio to wild type); higher = fitter; tRNA-Arg(CCU), competitive growth, 37 C, YPD
Fewer inactive variants are shown than the library holds.
Assignment: determine reported yeast fitness for the given variants.
Lab note: jot down the number only; don't add units.

[in] Fill blank: measured yeast fitness of the variant GUUCCGUUGGCGUAAGGGUAACGCGUCUGCCUCCUAAGGAGAAGACUGCGGGUUCGAAUCCCGUACGGAACG is ____.
[out] 0.59

[in] Fill blank: measured yeast fitness of the variant GUUCCGUUCGCGUAAUGGUAUCGCGUUUCCCUCCUAAGGAGAAAACUGCGGGUUCGAGUCCCGUAUGGAACG is ____.
[out] 0.602

[in] Fill blank: measured yeast fitness of the variant GUUCCGUUGGCGUACUGGUAACGCGUCUCCCUACUAAGGAGAAGACUGCGGGUUCGAGUCCCGUACGGAACG is ____.
[out] 0.578

[in] Fill blank: measured yeast fitness of the variant GUUCCGUUGGCGUAAAGGUAACGCGUCUCCCUCCUAAGGAGAAGACUACGGGUUCGAGUCCGGUACGGUACG is ____.
[out] 0.629

[in] Fill blank: measured yeast fitness of the variant GUUCCGUUGGCGUAAUGGUAACGCGUCUACCUCCUAAGGAGAAGACCGCGGGUUCGAGUCCCGUACGGAACG is ____.
[out] 0.713

[in] Fill blank: measured yeast fitness of the variant GUUCCGUUGGCGUAAUGGUAACGUGUCUCCCUCCUAAGGAGAAGACUGCGGGUUCGAGUCCCGUGCGGAACG is ____.
[out] 0.924

[in] Fill blank: measured yeast fitness of the variant GUUCCGUUGGCGUAAUGGUAACACGUUUCCCUCCUAAGGAGAAGACUGCGGGUUCGAGUCCCGUACGGAACG is ____.
[out] 0.706

[in] Fill blank: measured yeast fitness of the variant GUUCCGUUGGCGUAAUAGUAACGCGUCUCCAACCUAAGGAGAAGACUGCGGGUUCGAGUCCCGUACGGAACG is ____.
[out] 0.62

[in] Fill blank: measured yeast fitness of the variant GUUCCGUUGGCGUAAUGGUAACGCGUCUCCCUCCUAAGGAGAGGACUGCGGGUUCGAGUCCCGUCCGGAACG is ____.
[out] 0.79

[in] Fill blank: measured yeast fitness of the variant GUUCCGUUGGCGUAAUGGUGACGCGUCUCCCUCCUAAGGAGAAGACUGCGGGUUCGAGUCCCGUGCGGAACG is ____.
[out] 0.986

[in] Fill blank: measured yeast fitness of the variant GUUCCGUUGGCGUAAUGGUAACGCGUCUCCCUCCUAAGGAGAAGACUGCGGCUUCGAGUCCUGUACGGAACG is ____.
[out] 0.559

[in] Fill blank: measured yeast fitness of the variant GUUCCGUUGGCGUAAUGGUAACGCGUCUCCCUCCUAAGGUGAAGACUGCGGGUUAGAGUCCCGUACGGAACG is ____.
[out] 0.584

[in] Fill blank: measured yeast fitness of the variant GUUCCGUUGGCGUAAUGGUAACGCGUCUCCCUCCUAAGGAGGAGACUGCGGGUUGGAGUCCCGUACGGAACG is ____.
[out] 0.669

[in] Fill blank: measured yeast fitness of the variant GUUCCGUUGGCGUACUGGUAACGCGUCUCCCUCCUAAGGAGAAGACUGCGGGUUCGAGUCCCGCACGGAACG is ____.
[out] 0.956

[in] Fill blank: measured yeast fitness of the variant GUUCCGUUGGCGUAAUGGUAACGUGUCUCCCUCCUAAGGAGAAGACUGCGGGUUCGAGUCCAGUACGGGACG is ____.
[out] 0.502

[in] Fill blank: measured yeast fitness of the variant GUUCCGUUGGCGUAAUGGUAUCGCGUCUCCCUCCUAAGGUGAAGUCUGCGGGUUCGAGUCCCGUACGGAACG is ____.
[out] 0.625

[in] Fill blank: measured yeast fitness of the variant GCUCCGUUGGCGUAAUGGUAACGCGUCUCCCUCCUAAGGAGAAGACUGCGGGUUCGAGUACCGUAUGGAACG is ____.
[out] 0.576

[in] Fill blank: measured yeast fitness of the variant GUUCCGUUGGCGUAAUGGUAACGCGUCUCCCUCCUAAGGAGAAGACUGCGGGUUCUAGUCCCGUGCGGAACG is ____.
[out] 0.615

[in] Fill blank: measured yeast fitness of the variant GUUCCGUUGGCGUAAUGGUAACGCGUCUCCCUCCUAAGGAGAAGACUACGGGUUCGAGUCCUGUACGGAUCG is ____.
[out] 0.824

[in] Fill blank: measured yeast fitness of the variant GUUCCGUUGGCGUCAUGGUAACGCGUCUCCCUCCUAAGGAGAAGACUGCGGGUUCCAGUCCCGUACGGAACG is ____.
[out] 0.567

[in] Fill blank: measured yeast fitness of the variant GUUCGGUUGGCGUAAUGGUAACGCGUCUCCCUCCUAAGGAGAAGACUGCGGGUUCGAGUCCCGUACGGCUCG is ____.
[out] 0.765

[in] Fill blank: measured yeast fitness of the variant GUUUCGUUGGUGUAAUGGUAACGCGUCUCCCUUCUAAGGAGAAGACUGCGGGUUCGAGUCCCGUACGGAACG is ____.
[out] 0.575

[in] Fill blank: measured yeast fitness of the variant GUUCCAUUGGAGUAAUGGAAACGCGUCUCCCUCCUAAGGAGAAGACUGCGGGUUCGAGUCCCGUACGGUACG is ____.
[out] 0.577

[in] Fill blank: measured yeast fitness of the variant GUUCCGUUGGCGUAAUAGUCACGCAUCUCCCUCCUAAGGAGAAGACUGCGGGUUCGAGUCCCGUACGGAACG is ____.
[out] 0.506

[in] Fill blank: measured yeast fitness of the variant GUUCCGUUGGCGUAAUGGUACCGCGUCUCCCUCCUAAGGAGAAGAUUGCGGGUUCGAGUCCCGUUCGGAACG is ____.
[out] 0.556

[in] Fill blank: measured yeast fitness of the variant GUUUCGUUGGCGUAAUGGUAACGCGUCUCCCUCCUCAGGAGAAGACUGCGGGUUCGAGUCCCGUACGGAACG is ____.
[out] 0.542

[in] Fill blank: measured yeast fitness of the variant GUUCCGUUAGCGUAAUGGUAACGCGUCUCCAUCCUAAGGAGCAGACUGCGGGUUCGAGUCCCGUACGGAACG is ____.
[out] 0.54

[in] Fill blank: measured yeast fitness of the variant GUUGCGUUGGCGGAAUGGUAACGCGUCUCCCUCCUAAGGAGAAGACUGCGGGUUCGAGUCCCGUAUGGAACG is ____.
[out] 0.564

[in] Fill blank: measured yeast fitness of the variant GUUCCGUUGGCGUAAUGGUAACCAGUCUCGCUCCUAAGGUGAAGACAGCGCGUUCGAGUCCCGUACGGAACG is ____.
[out] 0.506

[in] Fill blank: measured yeast fitness of the variant GUUCCGUUGGCGUAAUAGUAACGCGUCUCUCUCCUAAGGAGAAGACUGCGGGUUCGCGUCCCGUACGGCACG is ____.
[out] 0.688

[in] Fill blank: measured yeast fitness of the variant GUUCCGUUGGCGUAAUGGUCACGCGUCUCCCUCCUAAGGAGAAGACUGCGGGUUCGUGUCCCGUUCGGAACG is ____.
[out] 0.571

[in] Fill blank: measured yeast fitness of the variant GUUCCGUUGGCGUAAUGGUAACGCGCCUCCUUCCUAAGGAGAGGACUGCGGGUUCGAGUCCCGUACGGAACG is ____.
[out] 1.12

[in] Fill blank: measured yeast fitness of the variant GUUCCGGUGGCGUAAUGGUAACGCGUCUCCCUCCUAAGGAGAACACUGCGGGUUCGAGUCCCGUACGGAACG is ____.
[out] 0.666

[in] Fill blank: measured yeast fitness of the variant GUUCCGUUGGCGUAAUGGUAACGCGUCUCCUUCCUAAGGAGAAGACCGCGGGUUCGAGUCCCAUACGGAACG is ____.
[out] 0.687

[in] Fill blank: measured yeast fitness of the variant GUUCCGUUGGCGUAAUGGUGACGCGUCUCCCUCCUAAGGAGACGACUGCGGGUUCGAGUCCCGUACGGAACG is ____.
[out] 1.09

[in] Fill blank: measured yeast fitness of the variant GUUCCGUUGGCGUAAUGGUAACGCGUAUCCCUCCUAAGGAGAAGACUGCGGGUUCGAAUCCCGUACGGAACG is ____.
[out] 0.849

[in] Fill blank: measured yeast fitness of the variant GUUCCGUUGGCCUAAUGGUAAGGCGUCUCCCUCCUAAGGCGAAGACUGCGGGUUCGAGUCCCGUACGGAACG is ____.
[out] 1.03

[in] Fill blank: measured yeast fitness of the variant GUUCCGUUGGCGUAAUGGUAACGCGUAUCCCUCCUAAGGACAAGACUGCGGGUUCGAGUCCCGUAUGGAACG is ____.
[out] 0.689

[in] Fill blank: measured yeast fitness of the variant GUUCCGUUGGCGUAAUGGUAACGCGUCUCCCUCCUAAGGAGAAGACUGCGGGUUGGAGACCCGUACGGAACG is ____.
[out] 0.677

[in] Fill blank: measured yeast fitness of the variant GUUCCGUUGGCGUAAUGGCAACCCGUCUCCCUCCUAAGGAGAAGACUGCGGGCUCGAGUCCCGUACGGAACG is ____.
[out] 0.562

[in] Fill blank: measured yeast fitness of the variant GUUCCGGUGGCGUAAUGGUAACGCGUCUCCCUCCUAAGGAGAAGACUGCGGGUUCGAGACCCGUACGGAACG is ____.
[out] 0.754

[in] Fill blank: measured yeast fitness of the variant GUUCCGUUGGCGUAAUGGUAAGGCGUCUCCCUCCUAAGGAGAAGGCUGCGGGAUCGAGUCCCGUAGGGAACG is ____.
[out] 0.565

[in] Fill blank: measured yeast fitness of the variant GUUCCGUUGGCGUCAUGGUAACGCGUCUCCCUCAUAAGGAGAAGACUGCGGGUUCGAGUCCCGUACGGAACG is ____.
[out] 0.565

[in] Fill blank: measured yeast fitness of the variant GGUCCGUUGGCGUAAUGGUAACGCGUCUCCCUCGUAAGGAGAAGACUGCGGGUUCGAGUCCCGUACGGAACG is ____.
[out] 0.655

Cited source for all entries: the RNAGym collection of RNA variant scans (doi:10.1126/science.aae0568)
